B1: TPR 5TU (parent)
chain: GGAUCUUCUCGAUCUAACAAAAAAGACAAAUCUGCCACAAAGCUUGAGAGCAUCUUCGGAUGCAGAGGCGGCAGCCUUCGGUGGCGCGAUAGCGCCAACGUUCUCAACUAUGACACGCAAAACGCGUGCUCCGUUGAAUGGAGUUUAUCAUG

Variants of: B1
ASSAY METHOD TEXT: polymerase ribozyme fitness, log enrichment relative to wild type (log ratio); higher = more active; in vitro selection for triplet polymerase activity
This sample holds only a part of the variants without activity.
ATTRIBUTE MEASURED: polymerase ribozyme fitness (log ratio)

INSERT INTO results (mutation_id, value_prefix, reported_result) VALUES
  ('G11U U13G G62U C69U G81A C87U', '≤', -4.2),
  ('C8A A30U G71A U82G C95A C103G U134A G141U', '≤', -4.2),
  ('A22U C35U U55A G59A G65A C85U C105A', '≤', -4.2),
  ('U31A C93G C95U C96A A113G', '≤', -4.2),
  ('C27U G68U G74U U77C G80C U104C C116G', '≤', -4.2),
  ('C14A A40G C43G G86U U135C G143C U148G', '≤', -4.2),
  ('G48C G68C G70A C129G', '≤', -4.2),
  ('A30G C85U G128A', '≤', -4.2),
  ('U53C C72A U139C A150G', '≤', -4.2),
  ('A17U A29U G74C G124U', '≤', -4.2),
  ('A29C C32A', '≤', -4.2),
  ('C35G U55A G58A G86U A147U', '=', -4.06),
  ('C87U G141C', '=', -1.72),
  ('C103G U130A', '=', -4.04),
  ('G11U C18G C54A G88A C118A', '≤', -4.2),
  ('C10U U15G A23U C43U U82C G92U U104C', '≤', -4.2),
  ('A20C A28C A37U G42U G71A C85U C99G A106G C131G', '≤', -4.2),
  ('C54G C75U G94A', '=', -1.51),
  ('C51U U134C', '=', -0.745),
  ('C76U U78C A106C', '=', -1.92),
  ('C27U C32A A39U C75U A91C A121C G126C', '≤', -4.2),
  ('G65A C114A', '=', -3.39),
  ('A41C G92U', '=', -1.08),
  ('C85A C116G', '=', -0.2),
  ('U102G G141C', '=', -3.94),
  ('G25U C63G G88C C108U', '=', -3.94),
  ('C14A A41C G94C', '=', -2.95),
  ('A3C G34C G48C A106U A138G A150G', '≤', -4.2),
  ('A12U C27G C36U C131U', '≤', -4.2),
  ('C96U A119U', '=', -0.778),
  ('C5G A41C G46C C57G A60U G68C U135A G141A', '≤', -4.2),
  ('A21U A23G A26G G84U G86U G136U U148G', '≤', -4.2),
  ('C14U A150C', '≤', -4.2),
  ('C14U U56A G74A C85A C87A C125U G143C A150U G152U', '≤', -4.2),
  ('U56C C93U', '=', -1.53),
  ('G50U C95G U104A', '=', -1.95),
  ('A3C G141U', '=', 0.471),
  ('C27G C32G C36G A73G C93G U135A', '=', -4.18),
  ('U6A G50C A52C', '≤', -4.2),
  ('A49U G67A C95U C114G A142C', '≤', -4.2),
  ('A19C G80A C85G', '=', -0.89),
  ('A30G A41U C69G C76U G94U U102G U130C', '≤', -4.2),
  ('A22C U33A G50A A66U C93U G100C A138G C149A', '≤', -4.2),
  ('U53A C57A U102G C125A U134A', '≤', -4.2),
  ('C38A C87U A107U', '=', -4.17),
  ('C85U G94A A121C A138U', '=', -4.08),
  ('U31G C57A G136A G140A U146A', '=', -3.1),
  ('C10G A21U A91G', '≤', -4.2),
  ('C32G G59C C96A U144A', '≤', -4.2),
  ('A89G C95U A142C', '=', -2.81),
  ('C108G G143C A147C', '≤', -4.2),
  ('A47G A147U', '=', 0.466),
  ('G68C G86U A89U C96A A110U C114U', '≤', -4.2),
  ('C87U C116U C118A', '=', -0.495),
  ('A12G C63U G83C C95U U109A', '=', -2.16),
  ('C69A C93G C103A U130A', '≤', -4.2),
  ('C32U U55G', '=', -1.52),
  ('C85U U144A', '=', -0.618),
  ('C85G A122U', '=', -1.53),
  ('A19G U55A G83A A97G G124A A142C', '≤', -4.2),
  ('G11U A21U G74C G92U', '≤', -4.2),
  ('C14G C85U C103U', '=', -3.1),
  ('A73G C93G U130C', '=', -3.08),
  ('A52G C87U C116G A122C G136U', '=', -2.85),
  ('A12U A24U C43A G46A U53A U55A C57U A60G G80U C93G', '≤', -4.2),
  ('G11C C32U C69A A121G', '=', -4.12),
  ('C103A', '=', -1.23),
  ('A20C U55A C132A A137G G143A U146G', '≤', -4.2),
  ('C96A A115C', '=', -0.888),
  ('C99G A113C U135C', '≤', -4.2),
  ('U55G A89G G94A A119U', '=', -1.9),
  ('C14G G25C', '≤', -4.2),
  ('C5A C54U A73G A119G G136A', '=', -0.371),
  ('G25U C93A A147G', '≤', -4.2),
  ('C95U A97U C99U G133U A150G', '≤', -4.2),
  ('A98U A107U C125A A147G', '≤', -4.2),
  ('A3G U4A A17C A52G G94C U102C C131U', '=', -1.71),
  ('G50U U77A C87A', '≤', -4.2),
  ('U6G U139C', '=', -3.69),
  ('G34A C85U A147C U148G G152U', '≤', -4.2),
  ('C36U C54A G68A G71A C95G A115U A122G', '≤', -4.2);
